Values were extracted from patent US10023590B2.

System: Echinocloa crus-galli
Test: Greenhouse post-emergence herbicidal activity, ECHCG
Assay type: in vivo
Conditions: Echinochloa crus-galli, ECHCG, 2 kg/ha, scale 0 to 100, read-out: Herbicidal activity
Measured pest or weed control at 2000 g/ha, listed per entry.
Value expressed in %; do not type the unit.

Examples with their reported pest or weed control at 2000 g/ha follow.
{"sample_smiles": "CC(C)N(c1c(Cl)ccc(C2=C(O)c3ncccc3C(C)(C)S2(=O)=O)c1Cl)S(C)(=O)=O", "study_system": "Echinocloa crus-galli", "units_text": "%", "numeric_result": 100}
{"sample_smiles": "CCN(c1c(Cl)ccc(C2=C(O)c3ncccc3CS2(=O)=O)c1Cl)S(C)(=O)=O", "study_system": "Echinocloa crus-galli", "units_text": "%", "numeric_result": 100}
{"sample_smiles": "CC1(C)c2cccnc2C(O)=C(c2c(Cl)ccc(NS(C)(=O)=O)c2Cl)S1(=O)=O", "study_system": "Echinocloa crus-galli", "units_text": "%", "numeric_result": 100}
{"sample_smiles": "Cc1c(C2=C(O)c3ncccc3C(C)(C)S2(=O)=O)cccc1N(C)S(C)(=O)=O", "study_system": "Echinocloa crus-galli", "units_text": "%", "numeric_result": 98}
{"sample_smiles": "CN(C)S(=O)(=O)Oc1c(Cl)ccc(C2=C(O)c3ncccc3CS2(=O)=O)c1Cl", "study_system": "Echinocloa crus-galli", "units_text": "%", "numeric_result": 100}

Now look at this one.
Q: Entry `Cc1c(C2=C(OC(=O)C(C)(C)C)c3ncccc3C(C)(C)S2(=O)=O)cccc1N(C)S(C)(=O)=O` : reported pest or weed control at 2000 g/ha = ?
Ans: 75

---

Tested on: Oryza sativa
Test: Greenhouse post-emergence herbicidal activity on crop ORYSA (rice)
Assay type: in vivo
Settings: crop ORYSA (rice), application rate 0.031 kg/ha
Measured Herbicidal activity, listed per entry.

Examples with their reported Herbicidal activity follow.
{"compound": "CN(c1cccc(C2=C(O)c3ncccc3CS2(=O)=O)c1S(C)(=O)=O)S(C)(=O)=O [I-33]", "result": 0}
{"compound": "CN(c1cccc(C2=C(O)c3ncccc3C(C)(C)S2(=O)=O)c1S(C)(=O)=O)S(C)(=O)=O [I-34]", "result": 0}
{"compound": "CN(c1c(Cl)ccc(C2=C(O)c3ncc(F)cc3C(C)(C)S2(=O)=O)c1Cl)S(C)(=O)=O [I-38]", "result": 35}
{"compound": "CN(c1cccc(C2=C(O)c3ncccc3CS2(=O)=O)c1C(F)(F)F)S(C)(=O)=O [I-35]", "result": 0}
{"compound": "CN(c1cccc(C2=C(O)c3ncccc3C(C)(C)S2(=O)=O)c1C(F)(F)F)S(C)(=O)=O [I-36]", "result": 30}

Now look at this one.
Q: Entry CN(c1c(Cl)ccc(C2=C(O)c3ncc(F)cc3CS2(=O)=O)c1Cl)S(C)(=O)=O [I-37] : reported Herbicidal activity = ?
Ans: 0

---

Measured pest or weed control at 31 g/ha, listed per entry.
Tested on: Amaranthus retroflexus
Test: Greenhouse post-emergence herbicidal activity, AMARE
Format: in vivo
Conditions: AMARE, application rate 0.031 kg/ha
Method: The culture containers used were plastic flowerpots containing loamy sand with approximately 3.0% of humus as the substrate. The seeds of the test plants were sown separately for each species. […] The test period extended over 2 to 4 weeks. During this time, the plants were tended, and their response to the individual treatments was evaluated. […]
Value expressed in %; do not type the unit.

{"compound": "CN(c1cccc(C2=C(O)c3ncccc3C(C)(C)S2(=O)=O)c1S(C)(=O)=O)S(C)(=O)=O [I-34]", "pest or weed control at 31 g/ha, %": 90}
{"compound": "CN(c1c(Cl)ccc(C2=C(O)c3ncc(F)cc3C(C)(C)S2(=O)=O)c1Cl)S(C)(=O)=O [I-38]", "pest or weed control at 31 g/ha, %": 98}
{"compound": "CN(c1cccc(C2=C(O)c3ncccc3C(C)(C)S2(=O)=O)c1C(F)(F)F)S(C)(=O)=O [I-36]", "pest or weed control at 31 g/ha, %": 90}

Now look at this one.
Q: Find pest or weed control at 31 g/ha (Amaranthus retroflexus) for the entry CN(c1c(Cl)ccc(C2=C(O)c3ncccc3C(C)(C)S2(=O)=O)c1C(F)(F)F)S(C)(=O)=O [I-32]
Ans: 98

---

System: Zea mays
Assay: Greenhouse post-emergence herbicidal activity on crop ZEAMX (corn, maize)
Assay type: in vivo
Set-up: key: 0 = no damage/normal growth, 100 = no emergence or complete destruction
Conditions: ZEAMX (corn, crop), 0.125 kg/ha, scale 0 to 100
Threshold 20. Herbicidal activity below it: fulfilled. Herbicidal activity at it or above: not fulfilled.

Study these solved cases before continuing.
{"sample_smiles": "Cc1c(C2=C(O)c3ncccc3C(C)(C)S2(=O)=O)cccc1N(C)S(C)(=O)=O", "group_label": "not fulfilled"}
{"sample_smiles": "CN(c1ccc(Cl)c(C2=C(O)c3ncccc3CS2(=O)=O)c1Cl)S(C)(=O)=O", "group_label": "not fulfilled"}
{"sample_smiles": "CN(c1cccc(C2=C(OC(=O)C(C)(C)C)c3ncccc3C(C)(C)S2(=O)=O)c1Cl)S(C)(=O)=O", "group_label": "fulfilled"}
{"sample_smiles": "CN(C)S(=O)(=O)Oc1c(Cl)ccc(C2=C(O)c3ncccc3CS2(=O)=O)c1Cl", "group_label": "fulfilled"}
{"sample_smiles": "CS(=O)(=O)Nc1ccc(Cl)c(C2=C(O)c3ncccc3CS2(=O)=O)c1Cl", "group_label": "fulfilled"}
{"sample_smiles": "CS(=O)(=O)Nc1c(Cl)ccc(C2=C(O)c3ncccc3CS2(=O)=O)c1Cl", "group_label": "fulfilled"}

Then this compound:
Q: Given the entry `CS(=O)(=O)N(c1c(Cl)ccc(C2=C(O)c3ncccc3CS2(=O)=O)c1Cl)C1CC1` , would its reported Herbicidal activity be below 20?
Ans: fulfilled

---

Tested on: Echinocloa crus-galli
Assay: Greenhouse post-emergence herbicidal activity, ECHCG
Assay type: in vivo
Conditions: Echinochloa crus-galli, ECHCG, application rate 0.125 kg/ha
readout: pest or weed control at 125 g/ha (%)
Value expressed in %; do not type the unit.

Examples with their reported pest or weed control at 125 g/ha follow.
{"sample_smiles": "CN(c1cccc(C2=C(O)c3ncccc3C(C)(C)S2(=O)=O)c1C(F)(F)F)S(C)(=O)=O", "pest or weed control at 125 g/ha / %": 95}
{"sample_smiles": "CN(c1c(Cl)ccc(C2=C(O)c3ncc(F)cc3CS2(=O)=O)c1Cl)S(C)(=O)=O", "pest or weed control at 125 g/ha / %": 95}
{"sample_smiles": "CN(c1c(Cl)ccc(C2=C(O)c3ncc(F)cc3C(C)(C)S2(=O)=O)c1Cl)S(C)(=O)=O", "pest or weed control at 125 g/ha / %": 100}

Q: Find pest or weed control at 125 g/ha (Echinocloa crus-galli) for the entry `CN(c1cccc(C2=C(O)c3ncccc3C(C)(C)S2(=O)=O)c1S(C)(=O)=O)S(C)(=O)=O`
Ans: 70

Q: Find pest or weed control at 125 g/ha (Echinocloa crus-galli) for the entry `CN(c1c(Cl)ccc(C2=C(O)c3ncccc3CS2(=O)=O)c1C(F)(F)F)S(C)(=O)=O`
Ans: 98

Q: Find pest or weed control at 125 g/ha (Echinocloa crus-galli) for the entry `CN(c1c(Cl)ccc(C2=C(O)c3ncccc3C(C)(C)S2(=O)=O)c1C(F)(F)F)S(C)(=O)=O`
Ans: 95

Q: Find pest or weed control at 125 g/ha (Echinocloa crus-galli) for the entry `CN(c1cccc(C2=C(O)c3ncccc3CS2(=O)=O)c1C(F)(F)F)S(C)(=O)=O`
Ans: 90

---

System: Oryza sativa
Experiment: Greenhouse post-emergence herbicidal activity on crop ORYSA (rice)
Type: in vivo
Settings: ORYSA (rice, crop), 0.031 kg/ha, scale 0 to 100
readout: Herbicidal activity
Write no unit; give the number alone.

Examples with their reported Herbicidal activity follow.
{"sample_smiles": "Cc1c(C2=C(O)c3ncccc3C(C)(C)S2(=O)=O)cccc1N(C)S(C)(=O)=O", "Herbicidal activity": 0}
{"sample_smiles": "CC1(C)c2cccnc2C(O)=C(c2c(Cl)ccc(NS(C)(=O)=O)c2Cl)S1(=O)=O", "Herbicidal activity": 0}

Q: Entry `CN(c1ccc(Cl)c(C2=C(O)c3ncccc3CS2(=O)=O)c1Cl)S(C)(=O)=O` : reported Herbicidal activity = ?
Ans: 25

Q: Entry `CN(c1c(Cl)ccc(C2=C(O)c3ncccc3C(C)(C)S2(=O)=O)c1Cl)S(=O)(=O)CC1CC1` : reported Herbicidal activity = ?
Ans: 0

Q: Entry `CS(=O)(=O)N(c1c(Cl)ccc(C2=C(O)c3ncccc3CS2(=O)=O)c1Cl)C1CC1` : reported Herbicidal activity = ?
Ans: 0

Q: Entry `Cc1c(C2=C(O)c3ncccc3C(C)(C)S2(=O)=O)ccc(Cl)c1N(C)S(C)(=O)=O` : reported Herbicidal activity = ?
Ans: 0

Q: Entry `CN(c1ccc(Cl)c(C2=C(O)c3ncccc3C(C)(C)S2(=O)=O)c1Cl)S(C)(=O)=O` : reported Herbicidal activity = ?
Ans: 0

Q: Entry `CN(C)S(=O)(=O)Oc1c(Cl)ccc(C2=C(O)c3ncccc3CS2(=O)=O)c1Cl` : reported Herbicidal activity = ?
Ans: 30

Q: Entry `CN(C)S(=O)(=O)Oc1c(Cl)ccc(C2=C(O)c3ncccc3C(C)(C)S2(=O)=O)c1Cl` : reported Herbicidal activity = ?
Ans: 0

Q: Entry `CC(C)N(c1c(Cl)ccc(C2=C(O)c3ncccc3CS2(=O)=O)c1Cl)S(C)(=O)=O` : reported Herbicidal activity = ?
Ans: 10

Q: Entry `CN(c1cccc(C2=C(O)c3ncccc3CS2(=O)=O)c1Cl)S(C)(=O)=O` : reported Herbicidal activity = ?
Ans: 0

Q: Entry `CCS(=O)(=O)N(C)c1c(Cl)ccc(C2=C(O)c3ncccc3CS2(=O)=O)c1Cl` : reported Herbicidal activity = ?
Ans: 30

Q: Entry `CN(c1cccc(C2=C(OC(=O)C(C)(C)C)c3ncccc3C(C)(C)S2(=O)=O)c1Cl)S(C)(=O)=O` : reported Herbicidal activity = ?
Ans: 0

Q: Entry `CCN(c1c(Cl)ccc(C2=C(O)c3ncccc3CS2(=O)=O)c1Cl)S(C)(=O)=O` : reported Herbicidal activity = ?
Ans: 0

Q: Entry `CN(c1c(Cl)ccc(C2=C(O)c3ncccc3CS2(=O)=O)c1Cl)S(=O)(=O)C1CC1` : reported Herbicidal activity = ?
Ans: 40

Q: Entry `CS(=O)(=O)Nc1ccc(Cl)c(C2=C(O)c3ncccc3CS2(=O)=O)c1Cl` : reported Herbicidal activity = ?
Ans: 25
